# MEASUREMENT_TARGET: Citron kinase (Homo sapiens (Human))
# Sequence (O14578 whole entry): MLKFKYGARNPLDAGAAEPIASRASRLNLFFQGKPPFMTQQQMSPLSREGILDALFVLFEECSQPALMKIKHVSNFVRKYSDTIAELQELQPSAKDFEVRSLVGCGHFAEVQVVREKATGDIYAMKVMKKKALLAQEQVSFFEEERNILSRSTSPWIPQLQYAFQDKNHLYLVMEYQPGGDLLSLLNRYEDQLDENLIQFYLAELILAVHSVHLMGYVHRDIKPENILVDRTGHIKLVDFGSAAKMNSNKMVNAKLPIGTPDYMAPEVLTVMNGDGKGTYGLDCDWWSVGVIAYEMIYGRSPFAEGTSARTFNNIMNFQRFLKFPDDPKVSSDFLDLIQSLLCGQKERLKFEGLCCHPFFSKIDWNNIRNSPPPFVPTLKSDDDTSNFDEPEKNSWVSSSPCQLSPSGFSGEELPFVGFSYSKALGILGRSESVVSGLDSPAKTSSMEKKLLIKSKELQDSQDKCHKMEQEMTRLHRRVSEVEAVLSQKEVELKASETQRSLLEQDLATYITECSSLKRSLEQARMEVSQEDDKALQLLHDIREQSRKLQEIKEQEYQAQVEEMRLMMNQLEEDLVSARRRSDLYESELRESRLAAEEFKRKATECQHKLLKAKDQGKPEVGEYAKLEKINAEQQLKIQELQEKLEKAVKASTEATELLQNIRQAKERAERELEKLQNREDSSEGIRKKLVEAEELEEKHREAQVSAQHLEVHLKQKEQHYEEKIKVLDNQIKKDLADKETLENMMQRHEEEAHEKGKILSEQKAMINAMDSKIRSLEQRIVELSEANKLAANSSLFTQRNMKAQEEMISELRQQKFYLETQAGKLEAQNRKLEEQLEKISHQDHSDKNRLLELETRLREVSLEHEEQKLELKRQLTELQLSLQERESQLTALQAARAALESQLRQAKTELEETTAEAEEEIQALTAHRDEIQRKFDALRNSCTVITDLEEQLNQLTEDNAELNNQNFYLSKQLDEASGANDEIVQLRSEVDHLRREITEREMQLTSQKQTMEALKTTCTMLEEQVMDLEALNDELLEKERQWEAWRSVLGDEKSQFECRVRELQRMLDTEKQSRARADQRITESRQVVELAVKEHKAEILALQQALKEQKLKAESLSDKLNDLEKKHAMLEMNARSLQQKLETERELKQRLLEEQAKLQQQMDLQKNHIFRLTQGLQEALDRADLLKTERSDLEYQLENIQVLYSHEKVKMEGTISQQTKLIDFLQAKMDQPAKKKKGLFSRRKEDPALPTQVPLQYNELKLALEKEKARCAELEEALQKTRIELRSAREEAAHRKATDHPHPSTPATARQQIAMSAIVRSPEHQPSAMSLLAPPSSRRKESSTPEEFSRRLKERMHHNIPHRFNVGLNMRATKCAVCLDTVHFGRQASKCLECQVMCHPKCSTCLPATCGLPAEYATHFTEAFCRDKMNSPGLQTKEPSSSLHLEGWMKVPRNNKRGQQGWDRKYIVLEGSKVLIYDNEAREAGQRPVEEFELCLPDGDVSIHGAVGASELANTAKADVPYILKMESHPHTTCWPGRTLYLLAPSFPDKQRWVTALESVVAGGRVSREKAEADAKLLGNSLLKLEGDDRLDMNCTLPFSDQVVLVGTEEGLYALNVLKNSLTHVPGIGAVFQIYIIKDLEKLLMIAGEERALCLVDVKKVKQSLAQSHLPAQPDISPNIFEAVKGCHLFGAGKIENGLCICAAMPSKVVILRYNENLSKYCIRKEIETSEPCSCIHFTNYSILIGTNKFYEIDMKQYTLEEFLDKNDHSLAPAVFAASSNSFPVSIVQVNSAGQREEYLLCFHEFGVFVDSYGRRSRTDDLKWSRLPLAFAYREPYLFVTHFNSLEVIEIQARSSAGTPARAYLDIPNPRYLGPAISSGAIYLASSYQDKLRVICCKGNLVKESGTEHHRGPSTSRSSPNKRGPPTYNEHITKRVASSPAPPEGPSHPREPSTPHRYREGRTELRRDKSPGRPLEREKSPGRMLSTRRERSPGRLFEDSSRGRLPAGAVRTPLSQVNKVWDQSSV
# MEASUREMENT_NOTES: Radiometric citron kinase assay (Eurofins Cat #16-040KP)
# Format: biochemical
# STATED_CONDITIONS: mean of at least two independent assays; read-out: Radiometric CitK IC50
PROPERTY_LABEL: pIC50
For clarity, pIC50 is expressed as the negative log10 of concentration in mol/L.

Completed entries (count: 6):
INSERT INTO assay_data (compound, readout_number) VALUES
  ('Cc1cc2c(-c3ccc(NC(=O)[C@H](N)C(C)(C)C)cc3C)ccnc2[nH]1', 7.31),
  ('Cc1cc2c(-c3ncc(NC(=O)[C@H](N)CC(C)(C)C)cc3C)ccnc2[nH]1', 7.01),
  ('COc1nc(NC(=O)[C@H](N)CC(C)C)ccc1-c1ccnc2[nH]c(C(F)(F)F)cc12', 6.95),
  ('COc1cc(NC(=O)[C@H](N)C(C)(C)O)ccc1-c1ccnc2[nH]c(C)cc12', 5.82),
  ('CCC[C@@H](N)C(=O)Nc1ccc(-c2ccnc3[nH]ccc23)cc1', 7.16),
  ('Cc1cc2c(-c3ccc(NC(=O)[C@H](N)C(C)(C)O)cc3C)ccnc2[nH]1', 7.40);

Lookup: Record request: pIC50 value, item Cc1cc2c(-c3ccc(NC(=O)[C@H](N)[C@@H](O)C(C)C)cc3C)ccnc2[nH]1
Found: 8.30

Lookup: Record request: pIC50 value, item CC(C)C[C@@H](NCC1CC1)C(=O)Nc1ccc(-c2ccnc3[nH]ccc23)cc1
Found: 6.17
